A collection of molecules and their measured Population Mitochondria Different-Phenotype (%)
Test system: Fibroblast
Assay: Multiplex assay against human fibroblast
Format: toxicity, cell-based
Settings: 48 h, 10 µM, compound concentration 10 uM, replicate 1
Unit % implied. Number only.

MOLECULE | TEST RESULT
Cc1nc(Cc2cccc(C(F)(F)F)c2)sc1-c1ccc(C(N)=O)nc1 [TP-024n] | 15

Supply Population Mitochondria Different-Phenotype (%) value. Item: COc1ccc(NS(=O)(=O)c2sc3ccc(Cl)cc3c2C)cc1N1CCNCC1.Cl
46

Supply Population Mitochondria Different-Phenotype (%) value. Item: Cl.Cl.Nc1ncnc2c1c(-c1cccc(OCc3ccccc3)c1)cn2[C@H]1C[C@@H](CN2CCC2)C1
79

Supply Population Mitochondria Different-Phenotype (%) value. Item: CC(C)N1CCC(C)(C)c2cc(C#Cc3ccc(C(=O)O)cc3)ccc21
0

Supply Population Mitochondria Different-Phenotype (%) value. Item: CC(=O)c1cc(-c2cc(C(=O)NC3CC3)ccc2C)c2ncccn12
6

---

A collection of compounds and their measured Growth Rate
Tested on: Fibroblast
Test: Incucyte cell viability with human fibroblast; note: filed as whole numbers so only -1 and 0 and 1 occur
Format: toxicity, cell-based
Conditions: 12 h, 10 µM, compound concentration 10 uM, replicate number 1, timepoint 12 hours
Just the number, please, no unit after it.

COMPOUND | TARGET | VALUE TYPE | TEST RESULT
Cc1cc(C)c(N)c(C#Cc2cccc(F)c2)n1.Cl | Fibroblast | Growth Rate | 0
CS(=O)(=O)N1CCN(Cc2cc3nc(-c4cccc5[nH]ncc45)nc(N4CCOCC4)c3s2)CC1 | Fibroblast | Growth Rate | 0

Supply Growth Rate value. Item: CC(C)(C)c1cnc(CSc2cnc(NC(=O)C3CCNCC3)s2)o1
0

Supply Growth Rate value. Item: N#Cc1cnc(Nc2cc(NC[C@H]3CNCCO3)c(C(F)(F)F)cn2)cn1
1

Supply Growth Rate value. Item: COc1cc2c(NC3CCN(C(C)C)CC3)nc(N3CCC(F)(F)CC3)nc2cc1OCCCN1CCCC1
1

Supply Growth Rate value. Item: CO[C@H]1/C=C/O[C@@]2(C)Oc3c(C)c(O)c4c(O)c(c(/C=N/N5CCN(C)CC5)c(O)c4c3C2=O)NC(=O)/C(C)=C\C=C\[C@H](C)[C@H](O)[C@@H](C)[C@@H](O)[C@@H](C)[C@H](OC(C)=O)[C@@H]1C
0

Supply Growth Rate value. Item: C[C@@H]1CN(c2cc(-c3nn(C)c4ccc(OC5(C)CC5)cc34)ncn2)C[C@H](C)O1
1

Supply Growth Rate value. Item: O=C(Nc1cccnc1)c1cc(-c2ccnc(F)c2)ccc1OCc1ccccc1
0

Supply Growth Rate value. Item: O=C(O)c1ccc2c(c1)nc(Nc1cccc(Cl)c1)c1ccncc12
1

Supply Growth Rate value. Item: C[C@H]1CCCN1Cc1nc2cc(NC(=O)c3ccc4cnccc4c3)ccc2[nH]1
1

Supply Growth Rate value. Item: Cn1cc(-c2ccc3occ(-c4ccccc4-c4ccccc4)c3n2)cn1
0

Supply Growth Rate value. Item: CN1CC(=O)N=C1NC(=O)Nc1cccc(Cl)c1 [FENOBAM ANHYDROUS]
1

---

Test system: Fibroblast
Assay: Multiplex assay against human fibroblast
Assay type: toxicity, cell-based
Conditions: 48 h, 1 µM, compound concentration 1 uM, replicate 1
Outcome label depends on Population Normal (%) relative to 80%: at/above gives yes, below gives no.

# check: Population Normal (%) of COc1cc2c(NC3CCN(C(C)C)CC3)nc(N3CCC(F)(F)CC3)nc2cc1OCCCN1CCCC1 is greater than or equal to 80%
no

# check: Population Normal (%) of Cl.Cl.Nc1ncnc2c1c(-c1cccc(OCc3ccccc3)c1)cn2[C@H]1C[C@@H](CN2CCC2)C1 is greater than or equal to 80%
no

# check: Population Normal (%) of CCCn1c(=O)c2[nH]c(C34CC5CC(CC3C5)C4)nc2n(CCC)c1=O [ROLOFYLLINE] is greater than or equal to 80%
yes

# check: Population Normal (%) of CCc1cc2c(cc1CC)CC(NC[C@H](O)c1ccc(O)c3[nH]c(=O)ccc13)C2 [INDACATEROL] is greater than or equal to 80%
yes

# check: Population Normal (%) of CC(=O)c1cc(-c2cc(C(=O)NC3CC3)ccc2C)c2ncccn12 is greater than or equal to 80%
yes
